Molecular target: Cellular tumor antigen p53 (Homo sapiens) (UniProt P04637)
Sequence (P04637 whole entry, looked up): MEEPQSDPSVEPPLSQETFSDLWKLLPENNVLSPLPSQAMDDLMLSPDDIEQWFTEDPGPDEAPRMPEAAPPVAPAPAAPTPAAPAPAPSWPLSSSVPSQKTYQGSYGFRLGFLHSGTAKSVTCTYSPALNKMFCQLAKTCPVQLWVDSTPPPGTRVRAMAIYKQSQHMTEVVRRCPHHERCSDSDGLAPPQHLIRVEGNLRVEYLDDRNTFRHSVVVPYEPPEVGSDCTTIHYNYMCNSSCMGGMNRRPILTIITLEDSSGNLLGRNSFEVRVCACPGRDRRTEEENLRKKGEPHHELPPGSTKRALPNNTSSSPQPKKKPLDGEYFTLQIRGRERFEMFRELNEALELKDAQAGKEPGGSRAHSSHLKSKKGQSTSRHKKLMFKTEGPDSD
Assay: ATG_p53_CIS: Attagene CIS-FACTORIAL HepG2 Assay for human p53 Transcription Factor (AID 2282994)
Settings: HepG2 p53 cis-element reporter, Attagene mRNA; actives raise or lower the signal
Calls of active or inactive are those of the source. Rule for the calls: active = hit-call score of the fitted dose curve at least 0.9, where 1 is the maximum; inactive = score below 0.9.
observation-type: AC50

compound	measurement-target	observation-type	value
C=CCOCC(CO)(CO)CO	Cellular tumor antigen p53 (Homo sapiens) (UniProt P04637)	AC50	inactive
CCCCN(C)C	Cellular tumor antigen p53 (Homo sapiens) (UniProt P04637)	AC50	inactive
O=C(c1cc(O)c(O)c(O)c1)c1ccc(O)c(O)c1O	Cellular tumor antigen p53 (Homo sapiens) (UniProt P04637)	AC50	100 µM (active)
CC1CNCC(C)O1 (configuration not stated)	Cellular tumor antigen p53 (Homo sapiens) (UniProt P04637)	AC50	inactive
c1cc2cccc3c4cccc5cccc(c(c1)c23)c54	Cellular tumor antigen p53 (Homo sapiens) (UniProt P04637)	AC50	inactive
NCCN	Cellular tumor antigen p53 (Homo sapiens) (UniProt P04637)	AC50	inactive
CCOCCOCC	Cellular tumor antigen p53 (Homo sapiens) (UniProt P04637)	AC50	inactive
c1cc[nH]c1	Cellular tumor antigen p53 (Homo sapiens) (UniProt P04637)	AC50	inactive
Oc1cc2ccccc2cc1O	Cellular tumor antigen p53 (Homo sapiens) (UniProt P04637)	AC50	inactive
FC(F)(F)N1C(F)(F)C(F)(F)OC(F)(F)C1(F)F	Cellular tumor antigen p53 (Homo sapiens) (UniProt P04637)	AC50	inactive
FC(F)=C(F)C(F)(F)C(F)(F)C(F)(F)C(F)F	Cellular tumor antigen p53 (Homo sapiens) (UniProt P04637)	AC50	inactive
O=CC(F)(F)C(F)(F)C(F)(F)C(F)F	Cellular tumor antigen p53 (Homo sapiens) (UniProt P04637)	AC50	inactive
CN(CCO)S(=O)(=O)C(F)(F)C(F)(F)C(F)(F)C(F)(F)C(F)(F)C(F)(F)C(F)(F)C(F)(F)F	Cellular tumor antigen p53 (Homo sapiens) (UniProt P04637)	AC50	inactive
CCCCCCc1ccc(N)cc1	Cellular tumor antigen p53 (Homo sapiens) (UniProt P04637)	AC50	6.32 µM (active)
CC1CCC(C(=O)O)CC1 (configuration not stated)	Cellular tumor antigen p53 (Homo sapiens) (UniProt P04637)	AC50	inactive
COc1cc(OC)nc(NC(=O)NS(=O)(=O)Nc2ccccc2C(=O)N(C)C)n1	Cellular tumor antigen p53 (Homo sapiens) (UniProt P04637)	AC50	inactive
CCN(CC)CC	Cellular tumor antigen p53 (Homo sapiens) (UniProt P04637)	AC50	inactive
CCCCCCCCC1CCC(=O)O1 (configuration not stated)	Cellular tumor antigen p53 (Homo sapiens) (UniProt P04637)	AC50	inactive
CCOC(C)=O	Cellular tumor antigen p53 (Homo sapiens) (UniProt P04637)	AC50	inactive
CCC(=O)C=Cc1ccc(OC)cc1	Cellular tumor antigen p53 (Homo sapiens) (UniProt P04637)	AC50	inactive
CCOC=O	Cellular tumor antigen p53 (Homo sapiens) (UniProt P04637)	AC50	inactive
O=C1c2ccccc2C(=O)c2c(O)c(O)cc(O)c21	Cellular tumor antigen p53 (Homo sapiens) (UniProt P04637)	AC50	inactive
CC(=O)CC(C)C	Cellular tumor antigen p53 (Homo sapiens) (UniProt P04637)	AC50	inactive
O=C(CC(=O)C(F)(F)C(F)(F)C(F)(F)F)c1cccs1	Cellular tumor antigen p53 (Homo sapiens) (UniProt P04637)	AC50	inactive
O=C(NO)c1ccccc1	Cellular tumor antigen p53 (Homo sapiens) (UniProt P04637)	AC50	35.3 µM (active) [middle of 4 runs]
COc1ccc(C#N)cc1	Cellular tumor antigen p53 (Homo sapiens) (UniProt P04637)	AC50	inactive
CCCCc1ccc2ccccc2c1S(=O)(=O)O	Cellular tumor antigen p53 (Homo sapiens) (UniProt P04637)	AC50	inactive
CC1=CC(=O)c2ccccc2C1=O	Cellular tumor antigen p53 (Homo sapiens) (UniProt P04637)	AC50	inactive
C=CC(=O)OCCC(F)(F)C(F)(F)C(F)(F)C(F)(F)C(F)(F)C(F)(F)C(F)(F)C(F)(F)F	Cellular tumor antigen p53 (Homo sapiens) (UniProt P04637)	AC50	inactive
CCCCCCCCC(C)=O	Cellular tumor antigen p53 (Homo sapiens) (UniProt P04637)	AC50	inactive
O=C1C=CC(=O)N1c1cccc(N2C(=O)C=CC2=O)c1	Cellular tumor antigen p53 (Homo sapiens) (UniProt P04637)	AC50	inactive
Cc1ccc(N=Nc2c(O)ccc3ccccc23)c(C)c1	Cellular tumor antigen p53 (Homo sapiens) (UniProt P04637)	AC50	inactive
CCO[Si](C)(C)OCC	Cellular tumor antigen p53 (Homo sapiens) (UniProt P04637)	AC50	inactive
OCCN1CN(CCO)CN(CCO)C1	Cellular tumor antigen p53 (Homo sapiens) (UniProt P04637)	AC50	inactive
COc1ccccc1NC(=O)c1cc2ccccc2cc1O	Cellular tumor antigen p53 (Homo sapiens) (UniProt P04637)	AC50	17.4 µM (active)
CC1COCc2cc3c(cc21)C(C)(C)C(C)C3(C)C (configuration not stated)	Cellular tumor antigen p53 (Homo sapiens) (UniProt P04637)	AC50	inactive
O=S(=O)(c1ccc(OCc2ccccc2)cc1)c1ccccc1O	Cellular tumor antigen p53 (Homo sapiens) (UniProt P04637)	AC50	33.4 µM (active)
Cc1ccc(C(=O)c2ccccc2)cc1	Cellular tumor antigen p53 (Homo sapiens) (UniProt P04637)	AC50	inactive
FC(F)(F)C1(F)C(F)(F)C(F)(F)C(F)(F)C1(F)F	Cellular tumor antigen p53 (Homo sapiens) (UniProt P04637)	AC50	inactive
CC(C)(C)c1ccc(CCC=O)cc1	Cellular tumor antigen p53 (Homo sapiens) (UniProt P04637)	AC50	182 µM (active)
CCCCCCOC(=O)c1ccc(O)cc1	Cellular tumor antigen p53 (Homo sapiens) (UniProt P04637)	AC50	52.2 µM (active)
Nc1ccc(O)c(C(=O)O)c1	Cellular tumor antigen p53 (Homo sapiens) (UniProt P04637)	AC50	inactive
